Target Or System: Fyn (UniProt P06241)
Sequence (P06241 whole entry, looked up): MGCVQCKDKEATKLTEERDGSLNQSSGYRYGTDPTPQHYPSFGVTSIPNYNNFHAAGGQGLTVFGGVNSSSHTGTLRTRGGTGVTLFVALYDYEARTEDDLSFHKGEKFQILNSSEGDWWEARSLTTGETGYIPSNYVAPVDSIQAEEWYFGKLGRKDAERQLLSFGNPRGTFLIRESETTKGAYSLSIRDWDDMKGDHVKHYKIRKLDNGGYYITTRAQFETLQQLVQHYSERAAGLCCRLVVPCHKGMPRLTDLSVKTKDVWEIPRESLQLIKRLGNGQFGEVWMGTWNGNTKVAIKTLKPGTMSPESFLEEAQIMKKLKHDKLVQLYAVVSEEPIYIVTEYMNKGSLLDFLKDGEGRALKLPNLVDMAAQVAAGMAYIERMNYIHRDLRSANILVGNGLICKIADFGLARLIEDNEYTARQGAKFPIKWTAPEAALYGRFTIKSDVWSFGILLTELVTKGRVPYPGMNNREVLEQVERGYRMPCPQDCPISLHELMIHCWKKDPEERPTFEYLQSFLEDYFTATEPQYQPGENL
Assay Name: phosphorylation enrichment, bacterial display (enrichment ratio); higher = better substrate or ligand; peptides without Tyr show the background;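 also: 11-residue human phosphosite peptides and single-mutation variants displayed on the E. coli surface, counted by deep sequencing, each peptide's frequency after selection divided by its frequency in the unselected input library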;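 also: frequency after pTyr selection over input frequency; kinase dosed for 20-30% of maximal phosphorylation in three min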
Readout Kind: phosphorylation enrichment

input_sequence="AERKLYRNVML [ZNF569_Y33_Q29E]" readout_kind="phosphorylation enrichment" observed_measurement=0.337
input_sequence="MTRDIYETDYY [INSR_Y1185]" readout_kind="phosphorylation enrichment" observed_measurement=1.63
input_sequence="EFGFRYELVQF [UGGT2_Y1289_Y1285F_YF]" readout_kind="phosphorylation enrichment" observed_measurement=0.433
input_sequence="FIGRIYLFLTK [GARS1_Y414_YF]" readout_kind="phosphorylation enrichment" observed_measurement=0.567
input_sequence="RGNKEYKEEKR [LENG1_Y96_E97K]" readout_kind="phosphorylation enrichment" observed_measurement=0.399
input_sequence="RSPLRYISILT [OR51B6_Y130_T131I]" readout_kind="phosphorylation enrichment" observed_measurement=0.409
input_sequence="TEQDPYNSIVR [MMUT_Y364_N366S]" readout_kind="phosphorylation enrichment" observed_measurement=0.494
input_sequence="LTECGYSFTTT [ACTB_Y198_R196C]" readout_kind="phosphorylation enrichment" observed_measurement=0.582
input_sequence="RLNAIYQNNLT [GSR_Y158]" readout_kind="phosphorylation enrichment" observed_measurement=0.772
input_sequence="KRRGPYEMSPS [PLPP7_Y172_T174M]" readout_kind="phosphorylation enrichment" observed_measurement=0.387
input_sequence="RSFSPYDFQPC [TNS1_Y796_YF]" readout_kind="phosphorylation enrichment" observed_measurement=5.66
input_sequence="PFAEPYADFGG [APBA1_Y187_S184A_YF]" readout_kind="phosphorylation enrichment" observed_measurement=0.72
input_sequence="VRFMAYTDETF [F8_Y450]" readout_kind="phosphorylation enrichment" observed_measurement=0.516
input_sequence="EILLSYLRTGY [TGM1_Y365]" readout_kind="phosphorylation enrichment" observed_measurement=0.524
input_sequence="ESMQSYDLDYP [UNC13B_Y243_D238E]" readout_kind="phosphorylation enrichment" observed_measurement=0.536
input_sequence="GTAPSYGNPSS [CD19_Y378]" readout_kind="phosphorylation enrichment" observed_measurement=0.358
input_sequence="NCLREYVAGRF [CRB1_Y711]" readout_kind="phosphorylation enrichment" observed_measurement=0.487
input_sequence="GGQVFYNSEFG [FLT4_Y1333_YF]" readout_kind="phosphorylation enrichment" observed_measurement=0.479
input_sequence="NHQYDYTFDWT [CSNK1A1_Y294]" readout_kind="phosphorylation enrichment" observed_measurement=0.66
input_sequence="SMGHRYIEVFK [HNRNPF_Y82]" readout_kind="phosphorylation enrichment" observed_measurement=0.354
input_sequence="FGGLRCGFGVL [KRTAP20-2_Y13_Y13C_YF]" readout_kind="phosphorylation enrichment" observed_measurement=0.349
input_sequence="VMAVAYRLAEQ [HK1_Y461_T457M]" readout_kind="phosphorylation enrichment" observed_measurement=0.431
input_sequence="DLQDEYDFKRK [STAT1_Y170_C174R]" readout_kind="phosphorylation enrichment" observed_measurement=0.465
input_sequence="ITNLLYHVVSW [GBA_Y412_G416S]" readout_kind="phosphorylation enrichment" observed_measurement=3.23
input_sequence="AFAEVYEGQVS [ALK_Y1131_G1128A]" readout_kind="phosphorylation enrichment" observed_measurement=0.563
input_sequence="GPGLVYGVANK [FLNB_Y1833]" readout_kind="phosphorylation enrichment" observed_measurement=1.59
input_sequence="GLRQGYFVEAQ [APCS_Y142]" readout_kind="phosphorylation enrichment" observed_measurement=0.366
input_sequence="WFKKFYDANYD [MAPRE2_Y158]" readout_kind="phosphorylation enrichment" observed_measurement=0.398
input_sequence="LGGSPYPRVPV [FGFR1_Y701_G703R]" readout_kind="phosphorylation enrichment" observed_measurement=0.429

All figures here come from the supplement of paper PMC10065799.
